Listing of entries alongside the reported STK11 functional score.
B1: library; numbered along this chain (parent)
chain: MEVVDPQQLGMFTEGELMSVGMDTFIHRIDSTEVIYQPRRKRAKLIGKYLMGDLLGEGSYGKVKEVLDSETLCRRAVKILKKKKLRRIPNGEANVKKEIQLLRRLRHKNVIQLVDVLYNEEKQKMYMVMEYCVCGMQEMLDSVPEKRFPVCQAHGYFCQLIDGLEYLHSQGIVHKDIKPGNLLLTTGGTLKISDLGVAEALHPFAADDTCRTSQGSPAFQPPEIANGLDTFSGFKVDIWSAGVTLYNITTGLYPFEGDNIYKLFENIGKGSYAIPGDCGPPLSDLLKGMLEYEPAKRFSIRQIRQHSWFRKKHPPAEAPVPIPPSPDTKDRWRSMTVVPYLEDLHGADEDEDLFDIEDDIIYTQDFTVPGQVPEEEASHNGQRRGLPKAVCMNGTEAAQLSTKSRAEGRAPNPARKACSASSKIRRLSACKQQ

- Variants of: B1
- procedureText: STK11 functional score (HeLa growth suppression), rescaled enrichment; synonymous median = 1, nonsense median = 0 (normalised score)
- settings: with HeLa; variant type: missense
No unit in the answer, please; the number alone is enough.

Past entries and their recorded results:
INSERT INTO assay_data (mutationlist, measured) VALUES
  ('G268F', 1.16),
  ('D68V', 0.366),
  ('G381S', 1.36),
  ('P221V', 1.01),
  ('M392I', 1.42),
  ('L190A', 0.537),
  ('G408W', 1.48),
  ('A410T', 0.749),
  ('K83C', 1.39),
  ('Q137Y', 0.779);

The recorded STK11 functional score for entry P38F equals 1.31

Notebook: I161D , STK11 functional score read as -0.303

// R42W : STK11 functional score value = 1.68
